- test-description: Stability of the ginsenosides in rat plasma (QC samples)
- Format: in vitro ADME
- test-conditions: extracted middle QC (142.4 Rb1, 62.5 Rb2, 48.8 Rd, 98.6 Re ng/mL); autosampler 4°C for 12 h
readout-type: Re (%) Postpreparation

1. CC(C)=CCC[C@](C)(O[C@@H]1O[C@H](CO)[C@@H](O)[C@H](O)[C@H]1O)[C@H]1CC[C@]2(C)[C@@H]1[C@H](O)C[C@@H]1[C@@]3(C)CC[C@H](O)C(C)(C)[C@@H]3[C@@H](O[C@@H]3O[C@H](CO)[C@@H](O)[C@H](O)[C@H]3O[C@@H]3O[C@@H](C)[C@H](O)[C@@H](O)[C@H]3O)C[C@]12C [Re]
8.92
2. CC(C)=CCC[C@](C)(O[C@@H]1O[C@H](CO)[C@@H](O)[C@H](O)[C@H]1O)[C@H]1CC[C@]2(C)[C@@H]1[C@H](O)C[C@@H]1[C@@]3(C)CC[C@H](O[C@@H]4O[C@H](CO)[C@@H](O)[C@H](O)[C@H]4O[C@@H]4O[C@H](CO)[C@@H](O)[C@H](O)[C@H]4O)C(C)(C)[C@@H]3CC[C@]12C [Rd]
9.98
3. CC(C)=CCC[C@](C)(O[C@@H]1O[C@H](CO[C@@H]2O[C@H](CO)[C@@H](O)[C@H](O)[C@H]2O)[C@@H](O)[C@H](O)[C@H]1O)[C@H]1CC[C@]2(C)[C@@H]1[C@H](O)C[C@@H]1[C@@]3(C)CC[C@H](O[C@@H]4O[C@H](CO)[C@@H](O)[C@H](O)[C@H]4O[C@@H]4O[C@H](CO)[C@@H](O)[C@H](O)[C@H]4O)C(C)(C)[C@@H]3CC[C@]12C [Rb1]
9.35

* * *

- test-description: Pharmacokinetics of four ginsenosides in rat plasma after oral administration of PQ-AG and PQ extracts (UPLC-MS/MS)
- Format: in vivo
- test-conditions: male, SD, po, 0.54 g/kg, PQ group: oral PQ extract 0.54 g/kg, male SD rats, n = 6, mean ± SD, read-out: AUC0⟶∞
readout-type: AUC (ng·h/mL)

1) CC(C)=CCC[C@](C)(O[C@@H]1O[C@H](CO[C@@H]2OC[C@H](O)[C@H](O)[C@H]2O)[C@@H](O)[C@H](O)[C@H]1O)[C@H]1CC[C@]2(C)[C@@H]1[C@H](O)C[C@@H]1[C@@]3(C)CC[C@H](O[C@@H]4O[C@H](CO)[C@@H](O)[C@H](O)[C@H]4O[C@@H]4O[C@H](CO)[C@@H](O)[C@H](O)[C@H]4O)C(C)(C)[C@@H]3CC[C@]12C
1230
2) CC(C)=CCC[C@](C)(O[C@@H]1O[C@H](CO)[C@@H](O)[C@H](O)[C@H]1O)[C@H]1CC[C@]2(C)[C@@H]1[C@H](O)C[C@@H]1[C@@]3(C)CC[C@H](O[C@@H]4O[C@H](CO)[C@@H](O)[C@H](O)[C@H]4O[C@@H]4O[C@H](CO)[C@@H](O)[C@H](O)[C@H]4O)C(C)(C)[C@@H]3CC[C@]12C
3320
3) CC(C)=CCC[C@](C)(O[C@@H]1O[C@H](CO[C@@H]2O[C@H](CO)[C@@H](O)[C@H](O)[C@H]2O)[C@@H](O)[C@H](O)[C@H]1O)[C@H]1CC[C@]2(C)[C@@H]1[C@H](O)C[C@@H]1[C@@]3(C)CC[C@H](O[C@@H]4O[C@H](CO)[C@@H](O)[C@H](O)[C@H]4O[C@@H]4O[C@H](CO)[C@@H](O)[C@H](O)[C@H]4O)C(C)(C)[C@@H]3CC[C@]12C
6150
4) CC(C)=CCC[C@](C)(O[C@@H]1O[C@H](CO)[C@@H](O)[C@H](O)[C@H]1O)[C@H]1CC[C@]2(C)[C@@H]1[C@H](O)C[C@@H]1[C@@]3(C)CC[C@H](O)C(C)(C)[C@@H]3[C@@H](O[C@@H]3O[C@H](CO)[C@@H](O)[C@H](O)[C@H]3O[C@@H]3O[C@@H](C)[C@H](O)[C@@H](O)[C@H]3O)C[C@]12C
2380
